Test system: Trypanosoma brucei
assay.procedure: Trypanosoma brucei 72 hour study
Assay type: functional, organism-based
Design: scale not given: in the data most compounds retested in dose-response had high values
measurement.conditions: 10 µM
Out of some 66,000 compounds screened, about 960 (1.5%) showed an effect of 50% or more. The sample holds strong results, similar compounds and a random draw of the others, so the mix is not that of the screen.
Provide the reported Percent Effect of each item.
Record the result as number plus unit.

Problem: Can you look up the measured Percent Effect of CCc1n[nH]c(C2CN(C(=O)c3cnc(C)cn3)CCO2)n1 (configuration not stated) for me?
Solution: -10.87%

Problem: Can you look up the measured Percent Effect of "COCCNC(=O)CN1CCN(c2nc(C)cs2)CC1" for me?
Solution: -57.99%

Problem: Can you look up the measured Percent Effect of Cc1ccc(-c2nc(CN3CCOC(CN(C)C)C3)co2)cc1 (configuration not stated) for me?
Solution: 5.738%

Problem: Can you look up the measured Percent Effect of CCc1nc(CN(C(C)=O)C2CCN(CCc3ccccn3)C2)no1 (configuration not stated) for me?
Solution: 65.29%

Problem: Can you look up the measured Percent Effect of O=C(NCCc1ccn(-c2ccccc2)n1)N1CCCC(CO)C1 (configuration not stated) for me?
Solution: 104%

Problem: Can you look up the measured Percent Effect of "O=C(NCCCNc1ccc(C(F)(F)F)cn1)c1ccc(F)cc1" for me?
Solution: -67.47%

Problem: Can you look up the measured Percent Effect of CN(C(=O)NCc1ccncc1)C1CCCN(c2ccccc2)C1=O (configuration not stated) for me?
Solution: -27.33%

Problem: Can you look up the measured Percent Effect of "CC(=O)NCC1CCN(c2cc(C)nc(-c3ccncc3)n2)CC1" for me?
Solution: -42.73%

Problem: Can you look up the measured Percent Effect of CC(O)CN1CCC(CNCc2cccc(OC(F)(F)F)c2)CC1 (configuration not stated) for me?
Solution: 16.76%

Problem: Can you look up the measured Percent Effect of "O=C(NCCCOCC1CC1)Nc1ccc(-n2cncn2)c(F)c1" for me?
Solution: -25.61%

Problem: Can you look up the measured Percent Effect of "CCOC(=O)c1ccc(S(=O)(=O)NCc2cccnc2N(C)C)cc1" for me?
Solution: -42.9%

Problem: Can you look up the measured Percent Effect of CN(C)CC1CN(Cc2coc(-c3ccc(Cl)cc3)n2)CCO1 (configuration not stated) for me?
Solution: -46.52%

Problem: Can you look up the measured Percent Effect of "CCOC1CCN(C(=O)NCCc2ccn(-c3ccccc3)n2)CC1" for me?
Solution: -34.62%

Problem: Can you look up the measured Percent Effect of CN(C)CC1CN(Cc2coc(-c3ccccc3)n2)CCO1 (configuration not stated) for me?
Solution: -12.24%

Problem: Can you look up the measured Percent Effect of "Cc1noc(C)c1C(=O)NCc1ccc(N2CCC(C)CC2)nc1" for me?
Solution: -31.9%

Problem: Can you look up the measured Percent Effect of Cc1nc(C)n(CC2CCCN2Cc2nc(C)c3ccccc3n2)n1 (configuration not stated) for me?
Solution: -1.729%

Problem: Can you look up the measured Percent Effect of CC(C)c1nc(C2CCCN2Cc2nnc(C3CCC3)o2)no1 (configuration not stated) for me?
Solution: -24.2%

Problem: Can you look up the measured Percent Effect of COc1ccc(F)cc1CN1CCCC1Cn1nc(C)nc1C (configuration not stated) for me?
Solution: -21.11%

Problem: Can you look up the measured Percent Effect of "Cc1cnn(CCNCc2nnc(-c3occc3C)o2)c1" for me?
Solution: -38.66%

Problem: Can you look up the measured Percent Effect of CCc1nc(CN(C(C)=O)C2CCN(CCc3ccccc3)C2)no1 (configuration not stated) for me?
Solution: -54.25%

Problem: Can you look up the measured Percent Effect of COc1c(CNC2CCc3c(F)cccc32)c(C)nn1C.Cl (configuration not stated) for me?
Solution: -43.32%

Problem: Can you look up the measured Percent Effect of "CN(C(=O)Cc1ccccc1Cl)C1CCN(c2ccccn2)CC1" for me?
Solution: -27.72%
